Read-out: Insulin-like growth factor-binding protein 1 (IGFBP1), IGFBP1 (gene 3484)
Assay: LTEA_HepaRG_IGFBP1: Life Technologies and Expression Analysis (LTEA) Assay for Insulin-like growth factor-binding protein 1 (IGFBP1) using HepaRG (AID 2283508)
Details: mRNA level, 48 h; actives raise or lower the signal
Activity calls are given as the source filed them. The calls were made as follows: active = hit-call score of the fitted dose curve at least 0.9, where 1 is the maximum; inactive = score below 0.9.
Labels: active, inactive

CCCCCCCCCCCCCCCCOS(=O)(=O)O	inactive
O=C(NO)C1(NS(=O)(=O)c2ccc(Oc3ccc(F)cc3)cc2)CCOCC1	inactive
Cc1ccc(S(=O)(=O)NC(=O)NN2CCCCCC2)cc1	inactive
c1ccc2ncccc2c1	inactive
Nc1ccn([C@@H]2O[C@H](CO)[C@@H](O)[C@@H]2O)c(=O)n1	inactive
CCn1nc(C)c2c1C(=O)NCC(c1ccc(O)cc1)=N2	inactive
CCCCCCOC(=O)CC(CC(=O)OCCCCCC)(OC(=O)CCC)C(=O)OCCCCCC	inactive
CCOc1ccc2[nH]cc(C(=O)NCc3ccccc3)c(=O)c2n1	inactive
CNC(C)=O	inactive
COS(C)(=O)=O	inactive
CCCCCOC(C)=O	inactive
Cc1nccn1-c1ccc(Sc2cccc(C3(C(N)=O)CCOCC3)c2)cc1	active
OCC(CO)(CO)CO	inactive
OCCOCCOCCO	inactive
NNC(=O)c1ccncc1	inactive
CCCCCCCC1CCC(=O)O1 (configuration not stated)	inactive
O=c1[nH]cnc2c1ncn2[C@H]1CC[C@@H](CO)O1	inactive
CC(C)C(=O)Nc1ccc([N+](=O)[O-])c(C(F)(F)F)c1	active
CCCCCCCCCC	inactive
COc1cc2c(c(OC)c1OC)-c1ccc(OC)c(=O)cc1[C@@H](NC(C)=O)CC2	active
O=C(O)c1cccc(C[C@@H]2COc3ccc(OCc4nc5cc(F)ccc5s4)cc3[C@@H]2O)c1	inactive
NC(=O)N(O)[C@@H]1COc2cc(OCc3ccccc3)ccc21	inactive
CC(C)CC(C)O (configuration not stated)	inactive
CCCCC(CC)C(=O)OCCOCCOCCOC(=O)C(CC)CCCC (configuration not stated)	inactive
CC(C)c1nnc2ccc(-c3ocnc3-c3cc(F)ccc3F)cn12	active
C[C@]12C=CC(=O)C=C1CC[C@H]1[C@@H]3C[C@@H](O)[C@](O)(C(=O)CO)[C@@]3(C)C[C@H](O)[C@@]12F	inactive
OCc1ccccc1	inactive
CC(C)CCCCCCOC(=O)C1CCCCC1C(=O)OCCCCCCC(C)C (configuration not stated)	inactive
CCc1ccc(O)c(C(C)(C)C)c1	inactive
CCCCN1C(=O)[C@@H]([C@H](O)C2CCCCC2)NC(=O)C12CCN(Cc1ccc(Oc3ccc(C(=O)O)cc3)cc1)CC2	active
CCN(CC)C(=S)SSC(=S)N(CC)CC	inactive
CCCC(CCC)C(=O)O	inactive

---

Experiment: ATG_CMV_CIS: Attagene CIS-FACTORIAL HepG2 Assay for human CMV (Internal Marker) (AID 2282928);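 also: endpoint acts as a background internal control marker rather than a target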
Conditions: HepG2 CMV promoter reporter, transcription factor profiling; actives raise or lower the signal
The source made the active and inactive calls. How the source made its calls: active means hit-call score of the fitted dose curve at least 0.9, where 1 is the maximum; inactive means score below 0.9.
Measurement name: AC50

O=C(N[C@H](CO)[C@H](O)c1ccc([N+](=O)[O-])cc1)C(Cl)Cl	inactive
CCN(CC)C(=S)SSC(=S)N(CC)CC	173 µM (active)
CC(C)CC(C)O (stereo not drawn)	inactive
CCCCCCCCCC	inactive
Cc1ncc([C@@H](CCCCCCc2ccc3c(n2)NCCC3)CC(=O)O)cn1	inactive
CCCCCCCCN(C)C	inactive
c1ccc2cc3ccccc3cc2c1	inactive
O=C(NO)C1(NS(=O)(=O)c2ccc(Oc3ccc(F)cc3)cc2)CCOCC1	inactive
O=C(O)c1cccc(C(=O)O)c1	inactive
OCCNCCO	inactive
Cc1nc(-c2ccccn2)ncc1C(=O)Nn1cc(C)c2cc(F)ccc21	inactive
CCCCC(CC)C(=O)OCCOCCOCCOC(=O)C(CC)CCCC (stereo not drawn)	inactive
c1ccc(C(O[C@@H]2CCCN(CCc3ccc4c(c3)OCO4)C2)c2ccccc2)cc1	50.8 µM (active)
